Value source: ChEMBL document CHEMBL1147665

Measured MIC90 values are reported for all entries that follow.
# Tested on: Staphylococcus epidermidis
# PROCEDURE SUMMARY: Antibacterial activity against Staphylococcus epidermidis
# Assay type: functional
Lab book: enter the figure in µg/mL, no units written.

Some solved entries appear below for comparison.
Could you share which MIC90 value was measured for O=C(O)/C=C1\NC(=O)[C@@H]1Cl ? 64

I would be grateful if you could share the reported MIC90 for O=C(/C=C1\NC(=O)[C@@H]1Cl)OCc1ccccc1 . 32

Here is another compound to look at.
Dear colleague, I am looking for the recorded MIC90 of the following compound: CC1(C)S[C@@H]2[C@H](NC(=O)[C@H](N)c3ccc(O)cc3)C(=O)N2[C@H]1C(=O)O [AMOXICILLIN] 4

====

# PROCEDURE SUMMARY: Viability of human TPC1 cell line at 128 uM after 21 hrs
# Assay type: cell-based
# TEST SETTINGS: TPC1 cells, read-out: Activity
MEASURE NAME: viability at 21 h, 128 µM (%)
Kindly answer with a numeric value in %, unit omitted.

Consider the molecule shown here: O=C(/C=C1\NC(=O)[C@@H]1Cl)OCc1ccccc1 What is its recorded viability at 21 h, 128 µM? 23

Turning to the following molecule.
Would you mind telling me what viability at 21 h, 128 µM value was observed for COc1cc(C(=O)O[C@H](C)[C@H]2C(=O)N/C2=C\C(=O)OCc2ccccc2)cc(OC)c1O ? 64

====

MIC90 for assorted compounds
# Test system: Staphylococcus aureus
# PROCEDURE SUMMARY: Antibacterial activity against methicillin-susceptible Staphylococcus aureus
# Assay type: functional

State the recorded MIC90 for this entry: CCOC(=O)/C=C1\NC(=O)[C@@H]1[C@@H](C)OC(=O)c1cc(OCc2ccccc2)c(OCc2ccccc2)c(OCc2ccccc2)c1 > 128 µg/mL

// query MIC90 value for entry CCOC(=O)/C=C1\NC(=O)[C@@H]1[C@@H](C)OC(=O)c1cc(O)c(O)c(O)c1 128 µg/mL

Item C[C@@H](O)[C@H]1C(=O)N/C1=C\C(=O)O has what recorded MIC90? > 128 µg/mL

What measured MIC90 goes with CCOC(=O)/C=C1\NC(=O)[C@@H]1[C@@H](C)OC(=O)c1cc(OCc2ccccc2)c(O)c(OCc2ccccc2)c1 ? > 128 µg/mL

Form field: reported MIC90 of C[C@@H](O)[C@H]1C(=O)N2C(C(=O)O)=C(S[C@@H]3CN[C@H](C(=O)N(C)C)C3)[C@H](C)[C@H]12 < 0.06 µg/mL

Bench note: what MIC90 did CCOC(=O)C[C@H]1NC(=O)[C@@H]1[C@@H](C)O[Si](C)(C)C(C)(C)C show? > 128 µg/mL

====

# PROCEDURE SUMMARY: Viability of human TPC1 cell line at 128 uM after 3 hrs
# Assay type: cell-based
# TEST SETTINGS: TPC1 cells, read-out: Activity
MEASURE NAME: viability at 3 h, 128 µM (%)
Kindly answer with a numeric value in %, unit omitted.

Need viability at 3 h, 128 µM, item O=C(/C=C1\NC(=O)[C@@H]1Cl)OCc1ccccc1 48

====

# System: Streptococcus pneumoniae
# PROCEDURE SUMMARY: Antibacterial activity against Streptococcus pneumoniae
# Format: functional
MEASURE NAME: MIC90

Use the examples below as a reference point.
Entry under review: COc1cc(C(=O)O[C@H](C)[C@H]2C(=O)N/C2=C\C(=O)O)cc(OC)c1OC . Reported MIC90? 128 µg/mL

Any idea what MIC90 was measured for C[C@@H](O[Si](C)(C)C(C)(C)C)[C@H]1C(=O)N/C1=C\C(=O)OCc1ccccc1 ? 128 µg/mL

Which MIC90 value is on record for CC1(C)S[C@@H]2[C@H](NC(=O)[C@H](N)c3ccc(O)cc3)C(=O)N2[C@H]1C(=O)O ? 8 µg/mL

Reported MIC90, compound C[C@@H](O[Si](C)(C)C(C)(C)C)[C@H]1C(=O)N/C1=C\C(=O)N[C@@H](Cc1ccc(O)cc1)C(=O)OC(C)(C)C : ____ > 128 µg/mL

---
Bench note: what MIC90 did O=C(/C=C1\NC(=O)[C@@H]1Cl)OCc1ccccc1 show? 128 µg/mL

Give the measured MIC90 of CO/N=C(\C(=O)N[C@@H]1C(=O)N2C(C(=O)O)=C(CSc3nc(=O)c(O)nn3C)CS[C@H]12)c1csc(N)n1 . 2 µg/mL

Which MIC90 is reported for this compound? CCOC(=O)/C=C1\NC(=O)[C@@H]1[C@@H](C)OC(=O)c1cc(OC)c(OC)c(OC)c1 128 µg/mL

# MIC90 lookup, item CCOC(=O)C[C@H]1NC(=O)[C@@H]1[C@@H](C)O[Si](C)(C)C(C)(C)C > 128 µg/mL

Consider the compound shown here: COc1cc(C(=O)O[C@H](C)[C@H]2C(=O)N/C2=C\C(=O)O)cc(OC)c1O What is its recorded MIC90? 128 µg/mL

// returns reported MIC90 for input COc1cc(C(=O)O[C@H](C)[C@H]2C(=O)N/C2=C\C(=O)OCc2ccccc2)cc(OC)c1OC > 128 µg/mL
